system: K-562 leukemia; experiment: NCI tumour cell line growth inhibition, 48 h; in the data active = GI50 below about 0.43 µM; inactive = the rest
Labels: active, inactive

compound="CC1CCC2C(CN(CC3=C(C(F)(F)F)OC4OC5(C)CCC6C(C)CCC3C46OO5)CC3=C(C(F)(F)F)OC4OC5(C)CCC6C(C)CCC3C46OO5)=C(C(F)(F)F)OC3OC4(C)CCC1C32OO4 (stereo not given)" cat=inactive
compound=COc1cc(-c2ncn(/C=C\c3nnco3)n2)cc(C(F)(F)F)c1 cat=active
compound=COc1ccc(S(=O)(=O)N2CCNCC2)cc1OC cat=inactive
compound=C[C@@H](NC(=O)c1ccc(F)cc1)c1ccc2c(c1)CCN2C(=O)C1CCOCC1 cat=inactive
compound=c1ccc2c(CNCCN3CCNCC3)c3ccccc3c(CNCCN3CCNCC3)c2c1 cat=inactive
compound=COc1cc(C(=O)/C=C/c2c(C(F)(F)F)nc3ccccn23)cc(OC)c1OC cat=inactive
compound=Cc1ccc(Cl)cc1-n1c(C)nc2c(cnn2-c2ccnc3c(C(F)(F)F)cccc23)c1=O cat=inactive
compound=COc1ccc(/C=N\Nc2nc(SCC(C)C)nc(-c3ccc(OC)cc3)c2C#N)cc1 cat=inactive
compound=O=C1c2ccccc2C(=O)c2c1cc1c(c2[N+](=O)[O-])OCO1 cat=inactive
compound=O=S(=O)(NCCCNc1nccc(-c2c(-c3ccc(F)cc3)nc3sccn23)n1)c1ccc(F)cc1 cat=inactive

* * *

Entries annotated with measured TGI
system: HCT-116 colon; assay: NCI tumour cell line growth inhibition, 48 h
outcome measure: TGI

compound="CSc1ccc2c(cc1=O)C(NC(=O)c1ccc(C#N)cc1)CCc1cc(O)c(O)c(O)c1-2 (centres undefined)" result="32.5 µM"
compound=O=C(O)Cc1cccc2c(=O)c3cccc([N+](=O)[O-])c3[nH]c12 result="> 100 µM"
compound="OC1COC(OCc2ccccc2)C(O)C1O (centres undefined)" result="> 100 µM"
compound="C=C1C2CCC3(CCC4C5(C)CCCC4(C=[N+](CCO)C5)C3C2)C1O (centres undefined)" result="> 100 µM"
compound=O=C(Nc1nc2ncn(CCO)c2c(=O)[nH]1)c1ccccc1 result="> 100 µM"
compound=COc1ccc2c(c1)C(=O)c1c-2c(=O)n(CCCN(C)C)c2cc(OC)c(OC)cc12 result="21.4 µM"
compound=Fc1ccc2nc(-c3nc(-c4ccccc4)n4ccccc34)[nH]c2c1 result="3.82 µM"
compound="C#CCNC(=O)NC(CCCCNC(=O)OCc1ccccc1)C(=O)OCc1ccccc1 (centres undefined)" result="> 100 µM"
compound="O=C(c1c(O)cc(O)cc1O)C1Cc2ccccc21 (centres undefined)" result="> 100 µM"
compound="CN(C)C(F)=PC(F)(F)F (centres undefined)" result="> 100 µM"
compound=O=C(c1ccco1)c1c(C(F)(F)F)n([O-])c2cc(F)c(F)cc2[n+]1=O result="0.386 µM"
compound=O=C(/C=C(\Nc1ccccc1O)c1ccc(Br)cc1)C(Cl)(Cl)Cl result="22.4 µM"
compound=O=S(=O)(O)c1ccc2cc(N=Nc3c(O)ccc4ccccc34)ccc2c1 result="> 100 µM"
compound=O=c1[nH]c2nc[nH]c2c(=O)n1C1CCCCC1 result="> 100 µM"

* * *

Entries annotated with measured TGI
system: PC-3 prostate; experiment: NCI tumour cell line growth inhibition, 48 h
outcome measure: TGI

chemical_smiles=c1ccc2c(CNCCN3CCNCC3)c3ccccc3c(CNCCN3CCNCC3)c2c1 target_desc="PC-3 prostate" result="20.3 µM"
chemical_smiles=c1ccc(CN2COc3c(ccc4c5c(ccc34)CN(Cc3ccccc3)CO5)C2)cc1 target_desc="PC-3 prostate" result="> 100 µM"
chemical_smiles=O=C(O)CCCc1ccccc1 target_desc="PC-3 prostate" result="> 1000 µM"
chemical_smiles=O=C(O)CC12CC3CC(CC(O)(C3)C1)C2 target_desc="PC-3 prostate" result="> 100 µM"
chemical_smiles=Nc1ccc(-c2nc3ccc(F)cc3s2)cc1I target_desc="PC-3 prostate" result="> 100 µM"
chemical_smiles=COC1=C(OC)C(=O)C(CCCCCCCCCCO)=C(C)C1=O target_desc="PC-3 prostate" result="15.6 µM"
